Data origin, for the record: patent US9174931B2

Below: a set of entries, each annotated with reported solubility.
Test: Water solubility of test compounds compared with EPA
Type: physicochemical
Settings: thermodynamic from solid; distilled water added in small portions until clear solution

{"COMPOUND": "CC/C=C\\C/C=C\\C/C=C\\C/C=C\\C/C=C\\CCCC(=O)OCC(C)(C)[C@@H](O)C(=O)NCCC(=O)O", "UNIT_OF_MEASURE": "mg/mL", "COMPARISON_OPERATOR": "=", "solubility": 60}
{"COMPOUND": "CC/C=C\\C/C=C\\C/C=C\\C/C=C\\C/C=C\\CCCC(=O)OCC(C)(C)[C@@H](OC(=O)c1ccccc1OC(=O)c1ccccc1OC(C)=O)C(=O)NCCC(=O)O", "UNIT_OF_MEASURE": "mg/mL", "COMPARISON_OPERATOR": "=", "solubility": 98}
{"COMPOUND": "CC/C=C\\C/C=C\\C/C=C\\C/C=C\\C/C=C\\CCCC(=O)OCC(C)(C)[C@@H](OC(=O)c1cccnc1)C(=O)NCCC(=O)O", "UNIT_OF_MEASURE": "mg/mL", "COMPARISON_OPERATOR": "=", "solubility": 103}
{"COMPOUND": "CC/C=C\\C/C=C\\C/C=C\\C/C=C\\C/C=C\\CCCC(=O)O [EPA, Eicosapentaenoic Acid, reference compound]", "UNIT_OF_MEASURE": "mg/mL", "COMPARISON_OPERATOR": "<", "solubility": 0.3}
